Listing: fold HLA-G binding activity against the positive control antibody of selected binders
Molecular target: T1, HLA-G expressed on the cell surface (human, UniProt P17693 25-338)
T1 construct: whole, on cells; The cell line of each entry is named under assay or readout; also called HLA-G on JEG-3 cells; HLA-G on SCH cells
Experiment: flow cytometry on JEG-3 and SCH cells naturally expressing HLA-G, anti-human IgG PE

[[record]]
binder = "2F1HS6LS#46 (antibody, human IgG1, kappa, V domains shown) VH: EVQLVESGGGLVQPGGSLRLSCAASGFTFSDYAMSWVRQAPGKGLEWVSRISQSGSYTYYADSVKGRFTISRDNSKNTLYLQMNSLRAEDTAVYYCAKEGTSSYRGWMDVWGQGTLVTVSS VL: DIQMTQSPSSLSASVGDRVTITCRASQSISNWLNWYQQKPGKAPKLLIYATSRLQSGVPSRFSGSGSGTDFTLTISSLQPEDFATYYCQQSYSTPWTFGQGTKVEIKR"
reported_result = "≥ 3 fold"

[[record]]
binder = "2F1CDRH3#17 (antibody, human IgG1, kappa, V domains shown) VH: EVQLVESGGGLVQPGGSLRLSCAASGFTFSDYAMSWVRQAPGKGLEWVSRISGTGSYKYYADSVKGRFTISRDNSKNTLYLQMNSLRAEDTAVYYCAKEGTSTYRGWMDVWGQGTLVTVSS VL: DIQMTQSPSSLSASVGDRVTITCRASQSISNYLNWYQQKPGKAPKLLIYATSRLQSGVPSRFSGSGSGTDFTLTISSLQPEDFATYYCQQSYTTPWTFGQGTKVEIKR"
reported_result = "≥ 3 fold"


Turning to the following binder.
Asked: State its fold HLA-G binding activity against the positive control antibody: 2F1CDRH3#10 (antibody, human IgG1, kappa, V domains shown) VH: EVQLVESGGGLVQPGGSLRLSCAASGFTFSSYAMSWVRQAPGKGLEWVSRISGSGGYKYYADSVKGRFTISRDNSKNTLYLQMNSLRAEDTAVYYCAKEGTSSYRGWMDVWGQGTLVTVSS VL: IQMTQSPSSLSASVGDRVTITCRASQSISNYLNWYQQKPGKAPKLLIYATSTLQSGVPSRFSGSGSGTDFTLTISSLQPEDFATYYCQQSYTTPWTFGQGTKVEIKR
Given back: ≥ 3 fold
